These measurements were taken from patent US20210261605A1.

system: IgG1 (product of Sigma-Aldrich)
measurementNotes: SPR (Biacore T100), Fc-binding protein immobilized on CM5 chip, IgG1 in flow
Label key: condition met means kon under 800000 M⁻¹ s⁻¹; condition not met means kon of 800000 M⁻¹ s⁻¹ or more.

Please review the following examples before continuing.
binder	group
Fc-binding protein FcR9 (SEQ ID NO: 20) (receptor) KIEEAMGMRTEDLPKAEVILEPQWNRVLEKDSVTLKCRGAYSPEDNSTQWFHNESLISSQASSYLIDAATVDDSGEYRCQTSLSTLSDPVQLEVHIGWLLLQAPRWEFKEGDPIHLRCHSWKNTALHKVTYLQNGKGRKYFHHNSDFYIPKATLKDSGSYSCRGLVGSKNVSSETVNITITQGGHHHHHH	condition met
FcR36i-containing Fc-binding protein (SEQ ID NO: 9) (receptor) KIEEAMGMRTGDMPKAEVILEPPWNRVLEQDSVTLKCRGAHSPDDDSTQWFHNERLIPSQASSFIIDSASVDDSGEYRCQTSLSTLSDPVQLEVHIGWLLLQAPRWEFVEGEPIHLRCHSWRNTALHKVMFLQNGKVRKYFHHNSDFVIPKATLEDSGSYSCRGLIGRKKVSSGAVDITVTQGGHHHHHH	condition not met
FcR9_F, Fc-binding protein having phenylalanine substituting for valine at position 192 of FcR9 (SEQ ID NO: 20) (receptor) KIEEAMGMRTEDLPKAEVILEPQWNRVLEKDSVTLKCRGAYSPEDNSTQWFHNESLISSQASSYLIDAATVDDSGEYRCQTSLSTLSDPVQLEVHIGWLLLQAPRWEFKEGDPIHLRCHSWKNTALHKVTYLQNGKGRKYFHHNSDFYIPKATLKDSGSYSCRGLFGSKNVSSETVNITITQGGHHHHHH	condition met
FcR36a-containing Fc-binding protein (SEQ ID NO: 11) (receptor) KIEEAMGMRTGDMPKAEVILEPPWNRVLEQDSVTLKCRGAHSPDDDSTQWFHNERLIPSQASSFIIDSASVDDSGEYRCQTSLSTLSDPVQLEVHIGWLLLQAPRWEFVEGEPIHLRCHSWRNTALHKVMFLQNGKVRKYFHHNSDFVIPKATLEDSGSYSCRGLAGRKKVSSGAVDITVTQGGHHHHHH	condition not met

Query: Dear colleague, could you confirm whether kon of FcR9_I (SEQ ID NO: 24), Fc-binding protein containing the amino acid substitution Val192Ile (receptor) KIEEAMGMRTEDLPKAEVILEPQWNRVLEKDSVTLKCRGAYSPEDNSTQWFHNESLISSQASSYLIDAATVDDSGEYRCQTSLSTLSDPVQLEVHIGWLLLQAPRWEFKEGDPIHLRCHSWKNTALHKVTYLQNGKGRKYFHHNSDFYIPKATLKDSGSYSCRGLIGSKNVSSETVNITITQGGHHHHHH falls below 800000 M⁻¹ s⁻¹? Thanks.
Response: condition met

Query: Would you kindly verify if kon of FcR35c-containing Fc-binding protein (SEQ ID NO: 5) (receptor) KIEEAMGMRTGDMPKAEVILEPPWNRVLEQDSVTLKCRGAHSPDDDSTQWFHNESLIPSQASSFIIDSASVEDSGEYRCQTSLSTLSEPVLLEVHIGWLLLQAPRWEFVEGEPIHLRCHSWRNTALHKVMFLQNGKVRKYFHHNSDFVIPKATLEDSGSYSCRGLVGRKNVSSEAVEITVTPGGHHHHHH is strictly less than 800000 M⁻¹ s⁻¹?
Response: condition met
